# experimental.system: hSTING-R232 (Homo sapiens (Human), UniProt Q86WV6, H232R)
# Sequence (Q86WV6 140-379 H232R): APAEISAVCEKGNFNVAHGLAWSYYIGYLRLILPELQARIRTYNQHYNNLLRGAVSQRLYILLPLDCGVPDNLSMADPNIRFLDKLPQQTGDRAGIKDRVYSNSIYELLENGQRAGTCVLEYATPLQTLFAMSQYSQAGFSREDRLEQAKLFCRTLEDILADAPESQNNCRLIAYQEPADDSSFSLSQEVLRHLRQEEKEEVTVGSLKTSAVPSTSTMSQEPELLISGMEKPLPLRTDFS
# experiment.summary: STING differential scanning fluorimetry (DSF) assay, WT human STING
# experimental.conditions: WT (R232) human STING aa140-379, net shift in melting temperature
observed.property: WT_DSF_hSWAT Tm Shift (° C.)

Check out these entries, answers already filled in.
Cc1ccc2c(=O)c3ccc(Cl)c(Br)c3n(CC(=O)O)c2c1 [Compound 112] = B (“B” = 0-2° C.)
C[C@@H](O)COc1c(Cl)ccc2c(=O)c3ccccc3n(CC(=O)O)c12 [Compound 323] = D (“D” > 7° C.)
COc1c(Cl)ccc2c(=O)c3ccccc3n(CC(=O)O)c12 [Compound 178] = C (“C” = 2-7° C,)
O=C(O)Cn1c2cc(-c3ccc(F)cc3)ccc2c(=O)c2ccc(Cl)c(Cl)c21 [Compound 153] = C (“C” = 2-7° C,)
CC1(C)CCC(c2ccc3c(=O)c4ccc(Cl)c(Cl)c4n(CC(=O)O)c3c2)CC1 [Compound 160] = B (“B” = 0-2° C.)
CCOc1c(Cl)ccc2c(=O)c3ccc(C)cc3n(CC(=O)O)c12 [Compound 282] = D (“D” > 7° C.)
COc1c(Cl)ccc2c(=O)c3cc(N(C)C)c(C(C)C)cc3n(CC(=O)O)c12 [Compound 319] = A (“A” < 0° C.)
COc1ccc2c(=O)c3ccccc3n(CC(=O)O)c2c1OC [Compound 265] = B (“B” = 0-2° C.)

For every item below, please supply its WT_DSF_hSWAT Tm Shift (° C.).
1. O=C(O)Cn1c2cc(Nc3cnccn3)ccc2c(=O)c2ccc(Cl)c(Cl)c21 [Compound 217]
2. COCCOc1c(Cl)ccc2c(=O)c3ccccc3n(CC(=O)O)c12 [Compound 330]

## Output
1. D (“D” > 7° C.)
2. B (“B” = 0-2° C.)

Each compound below has a reported value. Please supply its WT_DSF_hSWAT Tm Shift (° C.).
1. Cc1cc2c(cc1F)c(=O)c1ccc(Cl)c(Cl)c1n2CC(=O)O [Compound 135]
2. CC(C)c1ccc2c(=O)c3ccc(Cl)c(OC[C@@H](C)O)c3n(CC(=O)O)c2c1 [Compound 327]
3. CCSc1ccc2c(=O)c3ccc(Cl)c(OC)c3n(CC(=O)O)c2c1 [Compound 231]
4. C[C@H](Oc1c(Cl)ccc2c(=O)c3ccccc3n(CC(=O)O)c12)c1ccccc1 [Compound 295]
5. COc1c(Cl)ccc2c(=O)c3ccc(Nc4cccc(O)c4)cc3n(CC(=O)O)c12 [Compound 235]
6. CC1(C)CCCC(Nc2ccc3c(=O)c4ccc(Cl)c(Cl)c4n(CC(=O)O)c3c2)C1 (stereo not shown) [Compound 139]
7. Cc1cccc2c(=O)c3cccc(C)c3n(CC(=O)O)c12 [Compound 132]

## Output
["A (“A” < 0° C.)", "C (“C” = 2-7° C,)", "D (“D” > 7° C.)", "A (“A” < 0° C.)", "D (“D” > 7° C.)", "C (“C” = 2-7° C,)", "A (“A” < 0° C.)"]

Please state WT_DSF_hSWAT Tm Shift (° C.) for every compound in the list that follows.
1. COc1c(Cl)cc(O)c2c(=O)c3ccccc3n(CC(=O)O)c12 [Compound 314]
2. CCOc1c(Cl)ccc2c(=O)c3ccc(CC)cc3n(CC(=O)O)c12 [Compound 306]
3. CC(C)(C)c1ccc2c(=O)c3ccc(Cl)c(OC4CCC4)c3n(CC(=O)O)c2c1 [Compound 228]

## Output
1. C (“C” = 2-7° C,)
2. D (“D” > 7° C.)
3. C (“C” = 2-7° C,)

# per-item lookup of WT_DSF_hSWAT Tm Shift (° C.); items listed below
1. COc1c(Cl)ccc2c(=O)c3ccc(NC(C)C)cc3n(CC(=O)O)c12 [Compound 300]
2. COc1cccc2c(=O)c3ccc(Cl)c(OC)c3n(CC(=O)O)c12 [Compound 333]
3. CC1(C)CC=C(c2ccc3c(=O)c4ccc(Cl)c(Cl)c4n(CC(=O)O)c3c2)CC1 [Compound 159]
4. O=C(O)Cn1c2ccccc2c(=O)c2ccc(Cl)c(-c3ccccc3)c21 [Compound 256]

## Output
C (“C” = 2-7° C,)
B (“B” = 0-2° C.)
A (“A” < 0° C.)
C (“C” = 2-7° C,)
